Biological target: CYP3A4 (Homo sapiens, UniProt P08684)
Sequence (P08684 whole entry): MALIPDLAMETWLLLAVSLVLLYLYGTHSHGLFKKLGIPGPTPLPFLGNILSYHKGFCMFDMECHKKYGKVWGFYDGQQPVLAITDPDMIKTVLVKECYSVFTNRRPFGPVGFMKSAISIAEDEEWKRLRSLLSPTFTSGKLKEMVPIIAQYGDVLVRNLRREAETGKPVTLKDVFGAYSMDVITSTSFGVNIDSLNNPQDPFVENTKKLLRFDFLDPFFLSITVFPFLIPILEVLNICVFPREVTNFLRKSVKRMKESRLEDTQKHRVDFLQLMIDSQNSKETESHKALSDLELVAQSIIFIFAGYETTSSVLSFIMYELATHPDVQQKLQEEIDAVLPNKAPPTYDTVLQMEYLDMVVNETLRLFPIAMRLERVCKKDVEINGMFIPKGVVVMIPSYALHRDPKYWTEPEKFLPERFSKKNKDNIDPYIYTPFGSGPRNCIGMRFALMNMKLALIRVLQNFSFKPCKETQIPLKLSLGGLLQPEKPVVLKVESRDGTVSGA
Test: in vitro
Details: human microsomes, probe marker substrate cocktail, 1′-hydroxylation (CYP3A4)
Structures can show the parent of a compound that is named as a salt.
EXPERIMENTAL_ENDPOINT: inhibition at 10 min, 10 µM (%)
Write it as a number; the unit % goes unstated.

Prompt: Fill blank: measured inhibition at 10 min, 10 µM of the compound Cc1ccc(C(=O)Nc2ccc(S(=O)(=O)O)c3cc(S(=O)(=O)O)cc(S(=O)(=O)O)c23)cc1NC(=O)c1cccc(NC(=O)Nc2cccc(C(=O)Nc3cc(C(=O)Nc4ccc(S(=O)(=O)O)c5cc(S(=O)(=O)O)cc(S(=O)(=O)O)c45)ccc3C)c2)c1 [suramin, Suramin sodium salt] is ____.
Completion: 5
